MEASURED_TARGET: T1, Human CD98 ECD with C-terminal His-tag (human, UniProt P08195 105-529)
T1 construct: also called huCD98 ECD; recombinant human CD98 extracellular domain
T1 sequence: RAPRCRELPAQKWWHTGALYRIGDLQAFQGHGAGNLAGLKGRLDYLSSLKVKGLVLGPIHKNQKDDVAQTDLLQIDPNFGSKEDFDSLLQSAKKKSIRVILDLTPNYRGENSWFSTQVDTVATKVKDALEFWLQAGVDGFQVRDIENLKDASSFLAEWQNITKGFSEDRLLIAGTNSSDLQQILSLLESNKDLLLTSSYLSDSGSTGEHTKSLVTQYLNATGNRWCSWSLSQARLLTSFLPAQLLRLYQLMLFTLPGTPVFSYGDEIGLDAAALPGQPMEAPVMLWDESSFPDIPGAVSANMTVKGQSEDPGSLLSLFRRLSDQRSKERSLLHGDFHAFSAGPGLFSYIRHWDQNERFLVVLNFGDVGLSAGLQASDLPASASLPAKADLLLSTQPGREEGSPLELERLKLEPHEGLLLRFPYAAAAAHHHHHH
METHOD: SPR Biacore, anti-Fc capture of mAb, CD98 ECD analyte
# koff >= 0.0003 s⁻¹ gives YES, anything below gives NO

BINDER	GROUP_LABEL
Recombinant anti-CD98 chimeric antibody chAb11 (antibody, human IgG1, V domains shown) VH: EVQLVESGGGLVQPGRSLKLSCAASGFTFSDYAMAWVRQAPKKGLEWVAGIIYDGRGTYYRDSVKGRFTISRDNAKSTLYLQMDSLRSEDTATYYCARQGDGTYYYWGYFDYWGQGVMVTVSS VL: DIVMTQSPSSLAVSAGETVTINCRSSQSLLSSGNQKNYLAWYQQKPGQSPKLLIYWASTRQSGVPDRFIGSGSGTDFTLTISSVQAEDLAIYYCQQYYDTPYTFGAGTKLELK	YES
Recombinant anti-CD98 chimeric antibody chAb15 (antibody, human IgG1, V domains shown) VH: EVQLVESGGGLVQPGRSLKLSCAASGFTFSDYTMAWVRQAPKKGLEWVATIIYDGRGTYYRDSVKGRFTISRDNAKSTLYLQMDSLRSEDTATYYCARQSDGTYYYWGYFDYWGQGVMVTVSS VL: DIVMTQSPSSLAVSAGETVTINCKSSQSLLFSGNQKNYLAWYQQKPGQSPKLLIYWASTRQSGVPDRFIGSGSGTDFTLTIRSVQAEDLAIYYCQQYYDSPYTFGAGTKLELK	NO
Recombinant anti-CD98 chimeric antibody chAb9 (antibody, human IgG1, V domains shown) VH: QVQLKESGPGLVQPSQTLSLTCAVSGFSLSNYGVIWVRQPPGKGLEWMAVIWTNGNTNYNSTLKSRLSISRDTSKSQVYLKMNSLQTEDTATYYCARHYYDGTYYYGYFDYWGQGVMVTVSS VL: DIVMTQTPSSQAVSAGEKVTMSCKSSQSLLYTENKKNYLAWYQQKPGQSPKLLIYWASTRESGVPDRFMGSGSGTDFTLTISSVQAEDLAVYYCQQYYYFPYMFGAGTKLELK	NO
Recombinant anti-CD98 chimeric antibody chAb3 (antibody, human IgG1, V domains shown) VH: EVKLVESGGGLVQPGNSLRLSCATSGFTFIDYYMSWVRQSPGKALEWLGFIRNKANGYTTEYSASVKGRFTISRDNSQSILYLQMDTLRAEDSATYYCTRDRPAWFVYWGQGTLVTVSA VL: DIVMSQSPSSLAVSVGEKVTMSCKSSQSLLYSSNQKNYLAWYQQKPGQSPKLLIYWASTRESGVPDRFTGSGSGTDFTLTFSSVRAEDLAVYYCQQYYSYPYTFGGGTKLEIK	YES
